# Test system: K4 kissing-loop RNA reporter;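 also: bound reporter read as fluorescence of individual clusters on recovered sequencing chips by microscopy, with normalized cluster intensities fitted with a binding model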
# assay notes: apparent KD of K4 kissing-loop reporter; higher = weaker reporter binding
# stated conditions: Eterna round: R107; input ligand: theophylline 20 uM

{"chain sequence": "UUUUUUAAUGGAAGGAGCGCGUGGGCGCAGUGAUGUUGCGCCCGACAUCACUUCAACUUAACGCAGGUAGGUCGCCAUUAUUUUU [Arginine B (Excl) V6]", "system name": "K4 kissing-loop RNA reporter", "apparent KD of K4 kissing-loop reporter": "119 nM"}
{"chain sequence": "UGACAUUGCUCAGAUACCAGACCUGAGGAUCACCCGGGUGCCAAACGUACAAUAAUAAAGGUCCCUUGGCAGCUGAGCAAUGUCU [TheoBX 14]", "system name": "K4 kissing-loop RNA reporter", "apparent KD of K4 kissing-loop reporter": "68.4 nM"}
{"chain sequence": "AGGAGCGUGGGAUGGAAAUCGCACGCUCCUCGAGGACCGGUACGGCCGCCACUCGCUCGCGCCGAGUGAUGUUCGGCCGGCGAAC [#2 Same State - Tryptophan A Attempt #11 (HarryS)]", "system name": "K4 kissing-loop RNA reporter", "apparent KD of K4 kissing-loop reporter": "178 nM"}
